Reported values of kon for individual entries
Target: T1, recombinant human CD63 extracellular loop 2 expressed with a C-terminal Myc-Myc-hexahistidine (human)
T1 construct: also called hCD63 EC loop 2-MMH; human CD63 EC loop 2-MMH
T1 sequence (chain, as listed by the source limits assumed): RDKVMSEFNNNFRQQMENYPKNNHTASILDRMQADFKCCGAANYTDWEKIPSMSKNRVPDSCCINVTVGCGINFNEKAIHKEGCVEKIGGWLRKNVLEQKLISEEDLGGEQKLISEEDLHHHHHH
Assay: SPR Biacore, mAb captured, 25C
Please give a number only; it is taken to be in M⁻¹ s⁻¹.

binder="H1M12386N (antibody, V domains shown) VH: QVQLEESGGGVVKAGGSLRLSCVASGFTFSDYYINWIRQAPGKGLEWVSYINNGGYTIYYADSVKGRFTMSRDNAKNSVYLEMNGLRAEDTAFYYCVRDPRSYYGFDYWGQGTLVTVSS VL: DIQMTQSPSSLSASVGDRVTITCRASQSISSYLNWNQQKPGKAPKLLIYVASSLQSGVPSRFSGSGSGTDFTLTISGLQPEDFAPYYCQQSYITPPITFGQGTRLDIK" readout_label=kon result_value=540000

Which kon reading was recorded for the binder H2M12454N (antibody, V domains shown, also called H2bM12454N) VH: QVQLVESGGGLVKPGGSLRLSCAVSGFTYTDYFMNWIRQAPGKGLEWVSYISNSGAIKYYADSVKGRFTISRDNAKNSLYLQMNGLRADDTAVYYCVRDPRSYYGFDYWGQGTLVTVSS VL: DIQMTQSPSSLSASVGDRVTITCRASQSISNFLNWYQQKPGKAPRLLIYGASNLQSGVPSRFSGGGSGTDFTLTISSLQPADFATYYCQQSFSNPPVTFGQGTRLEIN ?
384000

Which kon reading was recorded for the binder H2M13022N (antibody, V domains shown, also called H2bM13022N) VH: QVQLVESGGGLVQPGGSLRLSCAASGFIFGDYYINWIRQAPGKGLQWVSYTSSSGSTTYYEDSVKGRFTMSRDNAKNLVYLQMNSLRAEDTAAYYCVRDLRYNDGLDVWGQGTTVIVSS VL: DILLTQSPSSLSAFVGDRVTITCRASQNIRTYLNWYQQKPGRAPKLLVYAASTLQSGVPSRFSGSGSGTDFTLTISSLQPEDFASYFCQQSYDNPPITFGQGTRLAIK ?
102000
